System: Human cathepsin L (Homo sapiens, UniProt P07711) | Read-out: pKi
Sequence (P07711 114-333): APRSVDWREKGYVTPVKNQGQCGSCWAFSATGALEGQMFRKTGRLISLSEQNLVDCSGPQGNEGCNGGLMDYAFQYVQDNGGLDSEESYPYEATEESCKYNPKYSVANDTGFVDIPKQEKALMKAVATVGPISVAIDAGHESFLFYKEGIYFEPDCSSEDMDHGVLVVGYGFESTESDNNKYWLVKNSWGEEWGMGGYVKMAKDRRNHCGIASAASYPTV
pKi: −log10 of the molar value.
observable: pKi

N#CC1(NC(=O)[C@H](CC(F)(F)c2ccccc2)N[C@@H](c2ccc(F)cc2)C(F)(F)F)CC1 :: 5.30 to 6.30
N#CC1(NC(=O)[C@H](CC(F)(F)CC2CC2)N[C@@H](c2ccc(F)cc2)C(F)(F)F)CC1 :: 6.30 to 7.68
CCC(F)(F)C[C@H](N[C@@H](c1ccc(F)cc1)C(F)(F)F)C(=O)NC1(C#N)CC1 :: 6.30 to 7.68
CCCC(F)(F)C[C@H](N[C@@H](c1ccc(F)cc1)C(F)(F)F)C(=O)NC1(C#N)CC1 :: 6.30 to 7.68
CC(C)CC(F)(F)C[C@H](N[C@@H](c1ccc(F)cc1)C(F)(F)F)C(=O)NC1(C#N)CC1 :: 6.30 to 7.68
N#CC1(NC(=O)[C@H](CC(F)(F)Cc2ccccc2)N[C@@H](c2ccc(F)cc2)C(F)(F)F)CC1 :: 6.30 to 7.68

====

target: Human cathepsin F (Homo sapiens)
Sequence (Q9UBX1 271-484): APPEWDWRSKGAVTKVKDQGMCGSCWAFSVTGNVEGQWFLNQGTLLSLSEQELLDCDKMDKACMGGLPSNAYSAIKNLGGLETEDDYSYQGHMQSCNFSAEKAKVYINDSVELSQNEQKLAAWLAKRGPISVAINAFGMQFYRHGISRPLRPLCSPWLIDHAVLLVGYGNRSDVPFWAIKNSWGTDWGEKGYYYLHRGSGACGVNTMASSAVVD
pKi: −log10 of the molar value.
observable: pKi

N#CC1(NC(=O)[C@H](CC(F)(F)c2ccccc2)N[C@@H](c2ccc(F)cc2)C(F)(F)F)CC1 :: < 5.30
CC(C)CC(F)(F)C[C@H](N[C@@H](c1ccc(F)cc1)C(F)(F)F)C(=O)NC1(C#N)CC1 :: 6.30 to 7.68
N#CC1(NC(=O)[C@H](CC(F)(F)Cc2ccccc2)N[C@@H](c2ccc(F)cc2)C(F)(F)F)CC1 :: 5.30 to 6.30
N#CC1(NC(=O)[C@H](CC(F)(F)CC2CC2)N[C@@H](c2ccc(F)cc2)C(F)(F)F)CC1 :: 6.30 to 7.68
CCC(F)(F)C[C@H](N[C@@H](c1ccc(F)cc1)C(F)(F)F)C(=O)NC1(C#N)CC1 :: 6.30 to 7.68

====

pKi: −log10 of the molar value.
// endpoint pKi / system Human cathepsin B (Homo sapiens)
observable: pKi

N#CC1(NC(=O)[C@H](CC(F)(F)CC2CC2)N[C@@H](c2ccc(F)cc2)C(F)(F)F)CC1 :: 6.30 to 7.68
CC(C)CC(F)(F)C[C@H](N[C@@H](c1ccc(F)cc1)C(F)(F)F)C(=O)NC1(C#N)CC1 :: 6.30 to 7.68
CCCC(F)(F)C[C@H](N[C@@H](c1ccc(F)cc1)C(F)(F)F)C(=O)NC1(C#N)CC1 :: 6.30 to 7.68
